# Species: Rattus norvegicus
# assay_details: Concentration required to inhibit 50% of the transport of [3H]choline into synaptosomes, using rat hippocampal synaptosomes.
# Format: functional
# conditions: Hippocampus
recorded_endpoint: IC50 (µM)

Below are worked cases with known answers.
> print(dat)
                 compound  recorded.endpoint  scale.unit  endpoint.value
1  C[N+](C)(CBr)CCO.[Br-]               IC50          µM            0.87
2    C[N+](C)(CI)CCO.[I-]               IC50          µM            0.49

[1] CC(O)C[N+](C)(C)CCl.[I-] (stereo not drawn)
[2] CC(O)C[N+](C)(C)CBr.[Br-] (stereo not drawn)
[3] C[N+](C)(CCl)CCO.[I-]
-- ask Rank entries according to their IC50, from the largest number down. Put the labels in the requested order and list them out.
-- reply 1, 2, 3
(1: 130 µM, 2: 56 µM, 3: 0.92 µM)

[1] CC(O)C[N+](C)(C)CI.[I-] (stereo not drawn)
[2] CC1C[N+](C)(C)CO1.[Br-] (stereo not drawn)
-- ask Sorting by IC50 in descending order, would 1 or 2 appear first? Your answer should be the label of the entry you select.
-- reply 2
